# System: SNB-19 CNS
# protocolDescription: NCI tumour cell line growth inhibition, 48 h
readoutName: GI50

Notebook: CCOc1ccccc1NC(=O)C(C#N)C1=C(Cl)C(=O)c2ccccc2C1=O (stereo not given) , GI50 read as 3.07 µM

Form: compound = [F][Sn]([F])([c]1ccccc1)[c]1ccccc1 ; GI50 = 2.25 µM

Entry O=C1C(Cl)=C(Nc2ccccc2O)C(=O)N1Cc1ccccc1 , GI50 reported as 35.8 µM

get_value(item= COC(=O)c1cc(/C=C/c2ccc(S(N)(=O)=O)cc2)ccc1O , readout=GI50) returns 38.2 µM

// GI50 value for NC(=S)N/N=C/c1cc(-c2cccc(N)c2)ccn1 : 4.24 µM

---

Give measured GI50 for each item. Keep answers brief.
# System: COLO 205 colon
# protocolDescription: NCI tumour cell line growth inhibition, 48 h

Kindly note the recorded GI50 for COC(=O)CCC1=C(CC(=O)OC)C(C)=N/C1=C\c1[nH]c(-c2ccc[nH]2)cc1OC , which is 3.79 µM

Sure, the documented GI50 for CN1CCN(c2ccc(Nc3ncc4cc(C#N)c(=O)n(C5CCCC5)c4n3)cc2)CC1 is 0.797 µM

Lookup result for O=C(NO)c1ccc(CN(c2cnccn2)c2cnccn2)cc1 ; measured GI50: 2.96 µM

The value of GI50 measured for the compound Clc1ccc(N=CNc2ccc(-c3nc4ccccc4o3)cc2)cc1 turned out to be 22.7 µM

The value of GI50 measured for the compound O=C1CSC(c2ccc(-c3nc4ccccc4s3)cc2)=N1 turned out to be > 100 µM

The measured GI50 associated with CO/N=C(/C)c1cccc(Nc2cc(-c3ccccc3)nc3ccc(OC)cc23)c1 reads 33.1 µM

The reported value for NC(=S)N/N=C/c1cc(-c2cccc(N)c2)ccn1 in terms of GI50 is 3.41 µM

---

# Test system: SW-620 colon
# protocolDescription: NCI tumour cell line growth inhibition, 48 h
Give measured TGI for each item. Keep answers brief.

Item O=C(CSC(c1ccccc1)c1ccccc1)N/N=C/c1ccco1 was tested on SW-620 colon; the reported TGI is > 11.6 µM

Value sought: TGI, system SW-620 colon, item N.N.NCCCCCCCCCN.O=C([O-])CC(=O)[O-].O=C([O-])CC(=O)[O-].[Pt+4].[Pt+4] . Result: > 100 µM

Measured on SW-620 colon, O=C1CCCc2cc3c(cc21)CC1(C3)Cc2ccc3c(c2C1)C(=O)CCC3 (stereo not given) has a documented TGI of > 100 µM

Measured TGI (SW-620 colon), entry C=C(C)[C@@]1(O[Si](C)(C)C)CCCC[C@@H]1CC(Sc1ccccc1)Sc1ccccc1 : 30.2 µM

The compound CCc1nc2cc3cccnc3c(Cl)c2[nH]c1=O , tested on SW-620 colon, showed TGI of > 100 µM

Measured on SW-620 colon, C[C@H]1CCC/C=C/[C@@H]2C[C@H](O)C[C@H]2[C@H](O)[C@@H](SCC(O)CO)CC(=O)O1 (stereo not given in full) has a documented TGI of > 100 µM

Field TGI (system: SW-620 colon) for entry CC(C)(C)c1ccc(OCC(=O)O)c(Cl)c1 = > 100 µM

Considering Cc1cc(C(C)(C)C)cc(Cc2cc(C(C)(C)C)cc(Cc3cc(C(C)(C)C)cc(C)c3O)c2O)c1O , its TGI with SW-620 colon was recorded as 17.4 µM

Form field TGI for item O=C(CCCN1CCC2(CC1)C(=NC1CCCCC1)NC(=O)N2c1ccccc1)c1ccc(F)cc1 on SW-620 colon: > 100 µM

Hey, SW-620 colon data for c1ccc(-c2cnc(-c3ccc(-c4ncc(-c5ccccc5)o4)cc3)o2)cc1 : TGI came out at > 100 µM

The observed TGI for Cn1ccnc1Sc1ccc(C=Nc2ccc3nc(SCC(=O)NC4CCCCC4)sc3c2)cc1[N+](=O)[O-] when tested with SW-620 colon stands at > 100 µM

Entry Cc1ccc(-c2c(C#N)c(-c3ccc([N+](=O)[O-])cc3)c(C#N)c(=O)n2NS(=O)(=O)c2ccccc2)cc1 : TGI on SW-620 colon = > 100 µM

Let me check: Cc1ccc(S(=O)(=O)NC(=O)NC2=NC(C)(C)N(c3ccc(Cl)c(Cl)c3)C(N)=N2)cc1 , system SW-620 colon, measured TGI is > 100 µM

Item CCCOC(=O)NC(C)C(=O)NC(CCC(=O)NC(CCCC(N)C(=O)O)C(=O)NC(C)C(=O)O)C(=O)O (stereo not given) was tested on SW-620 colon; the reported TGI is 62.3 µM

Here O=C1c2cccc(NCCNCCO)c2C(=O)c2cccc(NCCNCCO)c21 was tested on SW-620 colon, and its TGI came to 11 µM

// returns TGI for CC1=C(c2cc(C(=O)Nc3ccc(Cl)cc3)nc(=S)[nH]2)Sc2ccccc2N1 with SW-620 colon; value = > 100 µM

Note to self: TGI of O=C(O)CSC(NC(=O)C(C(F)(F)F)C(F)(F)F)(C(F)(F)F)C(F)(F)F with SW-620 colon was > 100 µM

# lookup: COC(=O)C1(Cc2ccc3c(c2)CCC3)Cc2cc3c(cc2C1)CCC3 on SW-620 colon, TGI = > 100 µM

Assay SW-620 colon, sample Clc1ccc(N=CNc2ccc(-c3nc4ccccc4o3)cc2)cc1 , TGI read: 8.16 µM

Kindly note: SW-620 colon, CCOC(CN(C)C(=S)Nc1cccc2ccccc12)OCC , TGI value reported: > 10 µM

---

# System: U251 CNS
# protocolDescription: NCI tumour cell line growth inhibition, 48 h
Please provide measured TGI for the entries that follow.

// returns TGI for Nc1nc(Nc2ccc(Cl)cc2)sc1C(=O)c1cccs1 with U251 CNS; value = 38.4 µM

Result for Cc1cc(/N=C/c2ccc(C#N)cc2)n(-c2ccccc2)n1 , tested on U251 CNS, TGI: > 100 µM

So the reported TGI for COc1cc(C(=O)N2CCc3c([nH]c4c([N+](=O)[O-])c(OC)ccc34)C2C)cc(OC)c1OC (stereo unspecified) , on U251 CNS, turned out to be > 100 µM

The molecule CCN1C(=O)N(CC)C2Nn3c(s/c(=C4\C(=O)N(C)c5ccccc54)c3=O)=NC21 (stereo unspecified) , when measured on U251 CNS, yielded TGI of > 100 µM

The observed TGI for CC(C)C1=C2CCC3(C)C(CCC4C5C6OCC5(CCC6(C)C)CCC43C)C2(C)CC1 (stereo unspecified) when tested with U251 CNS stands at 37 µM

Reported TGI (U251 CNS) for entry NC(=S)N/N=C/c1cc(-c2cccc(N)c2)ccn1 is > 38.8 µM

GET /values?item= O=C(NO)c1ccc(CN(c2cnccn2)c2cnccn2)cc1 &system= U251 CNS returns TGI: 21.4 µM

Field TGI (U251 CNS), entry CC(C)(C)C(=O)C(Cc1ccccc1)C(=O)C(C)(C)C : > 100 µM

Tested on U251 CNS, the item CC(C)(C)OC(=O)C1C(=O)NC(=O)CC1C(COCc1ccccc1)OCc1ccccc1 (stereo unspecified) showed TGI equal to 40.2 µM

I looked up COc1ccc(/C=N/N2C(=O)c3c(N)c(C#N)c(-c4ccccc4)c(-c4ccccc4)c3C2=O)cc1 and its TGI for U251 CNS was > 100 µM

Tested system U251 CNS; TGI recorded for O=C([CH-]C(=O)c1ccccc1)c1ccccc1.O=C([CH-]C(=O)c1ccccc1)c1ccccc1.[O]=[U+2]=[O] was > 100 µM

Param item: O=C(Nc1ccc(-n2cc(-c3ccncc3)c(-c3ccc(O)c(Cl)c3)n2)cc1)Nc1cccc(Cl)c1Cl ; param system: U251 CNS; output TGI: 25 µM

Item: Nc1ccccc1SC1CC(=O)N(c2ccc(Cl)c(Cl)c2)C1=O (stereo unspecified) | System: U251 CNS | TGI: > 100 µM

Case C[C@]1(S(=O)(=O)c2ccccc2)C[C@H]2N(Cc3ccccc3)[C@@H]1CCC21OCCO1 , U251 CNS, TGI recorded as > 100 µM

The molecule Cc1cc2c(nn1)-c1ccccc1C2=O , tested on U251 CNS, showed TGI of > 10 µM

Response field TGI (U251 CNS) for item COP(=O)(OC)C12CCOCCN1c1ccccc1C2=O (stereo unspecified) : > 100 µM

// TGI (U251 CNS) for N#CC(C(=O)CCC(=O)Nc1cccc(C(F)(F)F)c1)c1ccc(Cl)cc1 (stereo unspecified) = > 100 µM

// assay U251 CNS, entry COC(=O)CCC1=C(CC(=O)OC)C(C)=N/C1=C\c1[nH]c(-c2ccc[nH]2)cc1OC , TGI value = 12.6 µM

Result for O=C(N/N=C/c1c(Cl)cccc1Cl)c1ccc(C(F)(F)F)nc1Nc1cccc(C(F)(F)F)c1 , tested on U251 CNS, TGI: 12.8 µM

Value sought: TGI, system U251 CNS, item CCOC(CN(C)C(=S)Nc1cccc2ccccc12)OCC . Result: > 10 µM

U251 CNS TGI of O=C1CCc2ccc3c(c21)CC1(Cc2ccccc2C1)C3 is 74 µM
